Assay overview: Fraction unbound in CD-1 mouse brain homogenates at 1 uM after 6 hrs by equilibrium dialysis method
Study conditions: brain homogenate
I would appreciate it if you labelled entries 1 (yes) when fraction unbound at 6 h, 1 µM is 0.007 or higher, otherwise 0 (no).

Before answering, review these 10 worked examples.
Compound	Class name
COc1ccc2c(c1)c(CC(=O)O)c(C)n2C(=O)c1ccc(Cl)cc1	1 (yes)
CC(C)C[C@H]1C(=O)N2CCC[C@H]2[C@]2(O)O[C@](NC(=O)[C@@H]3C=C4c5cccc6[nH]c(Br)c(c56)C[C@H]4N(C)C3)(C(C)C)C(=O)N12	0 (no)
CCCc1nc2c(C)cc(-c3nc4ccccc4n3C)cc2n1Cc1ccc(-c2ccccc2C(=O)O)cc1	1 (yes)
CCN(CC)C(=O)/C(C#N)=C/c1cc(O)c(O)c([N+](=O)[O-])c1	1 (yes)
CC(C)(C)NCC(O)COc1ccc(NC(=O)NC2CCCCC2)cc1 (stereo not drawn)	1 (yes)
CN(C)CCCN1c2ccccc2Sc2ccc(Cl)cc21	0 (no)
Cc1ccc(C(=O)c2cc(O)c(O)c([N+](=O)[O-])c2)cc1	0 (no)
CCCCCCCN(CC)CCCC(O)c1ccc(NS(C)(=O)=O)cc1 (stereo not drawn) [IBUTILIDE]	1 (yes)
O=C1NC(=O)C(c2ccccc2)(c2ccccc2)N1	1 (yes)
Cc1nc2n(c(=O)c1CCN1CCC(c3noc4cc(F)ccc34)CC1)CCCC2O (stereo not drawn)	1 (yes)

Confirm if fraction unbound at 6 h, 1 µM reported for the compound COC(=O)C1=C(C)NC(C)=C(C(=O)OCCN(C)Cc2ccccc2)C1c1cccc([N+](=O)[O-])c1 (stereo not drawn) is 0.007 or above. 0 (no)

Could you verify whether the entry O=C(O[C@H]1CN2CCC1CC2)N1CCc2ccccc2[C@@H]1c1ccccc1 shows fraction unbound at 6 h, 1 µM of no less than 0.007? 1 (yes)

Check this compound for fraction unbound at 6 h, 1 µM at or above 0.007: CN1[C@@H]2CC[C@H]1C[C@@H](OC(=O)c1c[nH]c3ccccc13)C2 1 (yes)

// inclusive: fraction unbound at 6 h, 1 µM at least 0.007? input: O=c1n(CCCN2CCN(c3cccc(Cl)c3)CC2)nc2ccccn12 1 (yes)

Decide: is the reported value of fraction unbound at 6 h, 1 µM for Fc1ccc([C@@H]2CCNC[C@H]2COc2ccc3c(c2)OCO3)cc1 equal to or greater than 0.007? 0 (no)

Confirm if fraction unbound at 6 h, 1 µM reported for the compound CN1CCCC(n2nc(Cc3ccc(Cl)cc3)c3ccccc3c2=O)CC1 (stereo not drawn) is 0.007 or above. 1 (yes)

Textbook exercise: given the entry NC1CCN(c2c(F)cc3c(=O)c(C(=O)O)cn(C4CC4)c3c2Cl)C1 (stereo not drawn) , state whether its fraction unbound at 6 h, 1 µM is greater than or equal to 0.007. 1 (yes)

* * *

Assay overview: Fraction unbound in human occipital cortex at 1 uM after 6 hrs by equilibrium dialysis method
Assignment: determine reported fraction unbound at 6 h, 1 µM for the given compounds.
Answers are plain numbers.

Count: 4. Required value per item: fraction unbound at 6 h, 1 µM.
1. CCCc1nc2c(C)cc(-c3nc4ccccc4n3C)cc2n1Cc1ccc(-c2ccccc2C(=O)O)cc1
2. CN(C)CCCC1(c2ccc(F)cc2)OCc2cc(C#N)ccc21 (stereo not given)
3. CC(CC(c1ccccc1)c1ccccc1)NC(C)(C)C (stereo not given)
4. C[C@@H](O[C@H]1OCCN(Cc2n[nH]c(=O)[nH]2)[C@H]1c1ccc(F)cc1)c1cc(C(F)(F)F)cc(C(F)(F)F)c1 [APREPITANT]

[0.014, 0.047, 0.028, 0.001]

What measured fraction unbound at 6 h, 1 µM goes with CC(=O)CC(c1ccccc1)c1c(O)c2ccccc2oc1=O (stereo not given) ? 0.295
